Hey, just so you know, these numbers are from PubChem BioAssay (NCI).

# Test system: COLO 205 colon
# PROTOCOL NOTES: NCI-60 one-dose screen, 48 h (100 = growth as untreated, 0 = no growth, -100 = all killed)
# CONDITION CONTEXT: 10 µM unless noted
The panel holds about 83,000 compounds, 20% with a hit somewhere; the sample as a whole holds those more often.
MEASURED METRIC: growth (%)

>>> measured_value("c1cc2nc(-c3cn[nH]c3)c3c(c2cc1-c1cn[nH]c1)C1CCC3C1 (centres undefined)")
90.5
>>> measured_value("CC([C@H]1CCC2C3CCC4C[C@@H](NC=O)CC[C@]4(C)C3CC[C@@]21C)N(C)C (some centres undefined)")
-83.4
>>> measured_value("COc1ccc(C(=O)n2nc(-c3ccccc3)nc2N)cc1OC")
103
>>> measured_value("NC(=O)Nc1ccc2ncnc(Nc3ccc(Cl)cc3)c2c1")
101
>>> measured_value("COc1ccc2c(c1)C(C)Cc1c(ncnc1-n1c(C)nc3ccccc31)N2C (centres undefined)")
-11.3
>>> measured_value("CC1CN(C2CCCCC2)C(=S)N(c2ccccc2)C1=O (centres undefined)")
127
>>> measured_value("Oc1ccc(Cl)cc1Cc1cc(Cl)cc(Cl)c1O")
114
>>> measured_value("Oc1ccc(CCl)c2cccnc12")
35.9
>>> measured_value("O=C(CCN1C(=O)/C(=C/c2ccc(O)cc2)SC1=S)Nc1ccc(Cl)cc1")
120
>>> measured_value("CCCCN(C)N=Nc1ccc(C(N)=O)cc1")
110
>>> measured_value("COc1cccc(-c2nc(-c3ccc(NC(=O)C(C)C)cc3)[nH]c2-c2ccnc(Br)c2)c1")
30.1
>>> measured_value("CN1CCN(Cc2ccc(NC(=O)c3ccc(C(C)(C)C)c(C#Cc4cnc5cccnn45)c3)cc2C(F)(F)F)CC1")
-70.1
>>> measured_value("O=C(N/N=C/[C@@H](O)[C@H](O)[C@H](O)CO)c1ccc(NC(=O)c2cccnc2)cc1")
107
>>> measured_value("COc1cc(C(=O)c2cnc(-c3c[nH]c4cccc(C)c34)[nH]2)cc(OC)c1OC")
-29.3
>>> measured_value("COc1cc2oc(-c3ccc(O)cc3)cc(=O)c2c(O)c1-c1c(OC)cc(O)c2c(=O)cc(-c3ccc(O)cc3)oc12")
67.5
>>> measured_value("COc1ccc(C2CC(c3ccc(Nc4ccnc5cc(Cl)ccc45)cc3)=NN2C=O)cc1 (centres undefined)")
89.4
>>> measured_value("CCOC(=O)CC1C(COC(=O)NC)OC(n2cnc3c(NC(=O)Nc4ccccc4)ncnc32)C1O[Si](C)(C)C(C)(C)C (centres undefined)")
67.4
>>> measured_value("O=C1/C(=C/c2ccc(F)cc2)Sc2c(Br)cccc21")
105
>>> measured_value("Cc1cc(-c2cc(C)c(N)cc2C)c(C)cc1N")
99.2
>>> measured_value("C=C1CC[C@@]2(C#N)[C@H]3[C@H](CC[C@@H]2C)[C@@H](C)C[C@@H](CC(C)(C)C#N)[C@H]13")
35.5
>>> measured_value("O=C(CCN1C(=O)/C(=C/c2ccc(O)cc2)SC1=S)Nc1ccccc1")
125
>>> measured_value("COc1cc(-c2nc3sccn3c2-c2ccnc(NCCCNS(=O)(=O)c3ccc(F)cc3)n2)ccc1F")
56.9
>>> measured_value("O=c1[nH][n+](-c2ccc(Br)cc2)no1")
56.2
>>> measured_value("O=C(O)CCC/C=C\\C[C@H]1C=CC(=O)/C1=C/C[C@@H](O)CCc1cccc(C(F)(F)F)c1")
-38.1
>>> measured_value("O=C(Oc1cccc2ccccc12)Oc1cccc2ccccc12")
127
>>> measured_value("CCS(=O)(=O)c1ncnc2nc[nH]c12")
102
>>> measured_value("Cc1cccc2c1S/C(=C/c1ccc([N+](=O)[O-])cc1)C2=O")
114
>>> measured_value("COc1nc2ccc(C)cc2cc1-c1nc2c(cnn2-c2ccc(Br)cc2)c(=O)[nH]1")
74.2
>>> measured_value("CCCCC[C@H](O)C/C=C1/C(=O)C=C[C@@H]1C/C=C\\CCCC(=O)O")
78
>>> measured_value("Cc1nc2ccccc2n1-c1ncnc2c1CC(C)c1ccccc1N2C (centres undefined)")
88
>>> measured_value("c1ccc(CO[C@H]2CO[C@H]3[C@@H]2OC[C@@H]3Oc2ccc(Nc3ncnc4ccsc34)cc2)cc1")
71.8
>>> measured_value("CC(=O)CC(c1cccs1)c1c(-c2ccccc2)[nH]c2ccccc12 (centres undefined)")
107
>>> measured_value("O=S(=O)(Nc1ccc(-c2nc(-c3cccc(OCCN4CCOCC4)c3)c(-c3ccnc(Br)c3)[nH]2)cc1)c1ccccc1")
39.3
>>> measured_value("O=C1NC(=O)C(c2ccccc2)(c2ccccc2)N1Cc1cn(-c2c3ccccc3nc3ccccc23)nn1")
107
>>> measured_value("COc1cc(C(=O)c2cc(C)c3[nH]c4ccc(O)cc4c3c2C)cc(OC)c1OC")
7.01
>>> measured_value("Fc1cc2c(cc1Cl)N(c1ncnc3ccc(-c4cnc5cnccn45)cc13)CC2")
121
>>> measured_value("COc1c(C2CC(=O)Nc3c2c(C)nn3-c2nc3ccccc3[nH]2)cc2c(c1OC)OCO2 (centres undefined)")
84.1
>>> measured_value("CCCC1CCC(O)(C(C)(O)C(=O)NC2C(=O)N3NCCCC3C(=O)N(O)C(C)C(=O)N3NCCCC3C(=O)N3NCC(O)CC3C(=O)NC(C)C(=O)OC2C(C)C)OC1CC (centres undefined)")
-89
>>> measured_value("O=C(CCOCCNC(=O)COc1ccc2c(c1)OCC(c1ccc(F)cc1)C2=O)NCCCC(O)(P(=O)(O)O)P(=O)(O)O (centres undefined)")
112
